molecular target: T1, Extracellular domain of TIM-3 with Flag and His tag (human); assay: Biacore SPR; antibody as stationary phase, 'TIM-3-His' as mobile phase
T1 construct: also called TIM-3-Flag-His
readout.name: Kd (nM)
Report the figure in nM without appending any unit label.

h1701-009NMA (antibody, human IgG4 S228P, kappa, V domains shown, HCDR2 point-mutation variant of h1701-009 (NNG to NMA); IgG4 (S228P)/kappa) VH: QVQLVQSGAEVKKPGASVKVSCKASGYTFTDYYMNWVRQAPGQGLEWMGDIIPNMAGSKYNQKFKDRVTMTTDTSTSTAYMELRSLRSDDTAVYYCATWGYGSSYRWFDYWGQGTLVTVSS VL: DIQMTQSPSSLSASVGDRVTITCLASQPIGIWLAWYQQKPGKAPKLLIYAATSLADGVPSRFSGSGSGTDFTFTISSLQPEDIATYYCQQLYSSPWTFGGGTKVEIKR | 0.653

Next item in the queue.
Short answer for h1701-009NNA (antibody, human IgG4 S228P, kappa, V domains shown, HCDR2 point-mutation variant of h1701-009 (NNG to NNA); IgG4 (S228P)/kappa) VH: QVQLVQSGAEVKKPGASVKVSCKASGYTFTDYYMNWVRQAPGQGLEWMGDIIPNNAGSKYNQKFKDRVTMTTDTSTSTAYMELRSLRSDDTAVYYCATWGYGSSYRWFDYWGQGTLVTVSS VL: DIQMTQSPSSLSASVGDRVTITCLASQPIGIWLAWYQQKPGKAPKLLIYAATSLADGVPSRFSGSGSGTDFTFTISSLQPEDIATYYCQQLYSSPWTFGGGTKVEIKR : Kd was 0.569
